The following are reported Ki results, target or system DOR (Homo sapiens, UniProt P41143).
Outcome Measure: Ki (µM)

>>> observed_result("O=C(NC12CC3CC(CC(C3)C1)C2)[C@@H]1CC=C[C@@H]2CCN(c3ccccc3)C(=O)[C@@H]21 (racemic)")
0.116
>>> observed_result("O=C(Nc1ccc(I)cc1)[C@@H]1CC=C[C@@H]2CCN(c3ccccc3)C(=O)[C@@H]21 (racemic)")
0.083
>>> observed_result("O=C(NCC1CC1)[C@@H]1CC=C[C@@H]2CCN(C3CCCCC3)C(=O)[C@@H]21 (racemic)")
0.475

###

Molecular target: MOR (Homo sapiens, UniProt P35372)
Sequence (P35372 whole entry): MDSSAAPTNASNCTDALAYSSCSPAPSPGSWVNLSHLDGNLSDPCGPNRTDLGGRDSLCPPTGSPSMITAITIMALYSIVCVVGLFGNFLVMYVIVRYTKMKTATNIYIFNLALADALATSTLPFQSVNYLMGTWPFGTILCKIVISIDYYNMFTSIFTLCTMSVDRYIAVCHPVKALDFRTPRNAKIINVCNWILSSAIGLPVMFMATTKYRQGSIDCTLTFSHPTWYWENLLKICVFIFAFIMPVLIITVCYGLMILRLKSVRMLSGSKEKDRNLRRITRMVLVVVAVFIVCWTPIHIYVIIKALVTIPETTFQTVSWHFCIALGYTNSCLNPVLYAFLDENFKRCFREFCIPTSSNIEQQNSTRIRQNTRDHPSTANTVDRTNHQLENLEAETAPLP
Test: Opioid secondary binding, MOR (Tables 4, 5, 8)
Details: Opioid secondary binding activity for Formula 10 analogs; read-out: MOR, Ki
pKi: −log10 of the molar value.
Entries and their pKi
Outcome Measure: pKi

>>> observed_result("COc1ccc(NC(=O)[C@@H]2CC=C[C@@H]3CCN(Cc4ccc(Cl)c(Cl)c4)C(=O)[C@@H]32)cc1 (racemic) [compound 8947]")
5.46
>>> observed_result("O=C(NCc1ccc(Cl)c(C(F)(F)F)c1)[C@@H]1CC=C[C@@H]2CCN(Cc3ccccc3)C(=O)[C@@H]21 (racemic) [compound 11868]")
5.66
>>> observed_result("O=C(Nc1ccc(Br)c(C(F)(F)F)c1)[C@H]1CC=C[C@H]2CCN(Cc3ccccc3)C(=O)[C@@H]12 [11869*]")
6.19
>>> observed_result("O=C(Nc1ccccc1)[C@@H]1CC=C[C@@H]2CCN(Cc3ccc(Cl)c(Cl)c3)C(=O)[C@@H]21 (racemic) [compound 8941]")
5.57
>>> observed_result("O=C(Nc1ccc(Cl)c(C(F)(F)F)c1)[C@@H]1CC=C[C@@H]2CCN(Cc3ccccc3)C(=O)[C@@H]21 (racemic) [compound 8620]")
5.45
>>> observed_result("O=C(Nc1ccc(Cl)c(C(F)(F)F)c1)[C@@H]1CC=C[C@H]2CCN(Cc3ccccc3)C(=O)[C@H]21 [compound 11795]")
5.27
>>> observed_result("O=C(NCCc1ccccc1)[C@@H]1CC=C[C@@H]2CCN(Cc3ccccc3)C(=O)[C@@H]21 (racemic) [compound 8916]")
5.34
>>> observed_result("COc1ccc(CN2CC[C@H]3C=CC[C@@H](C(=O)Nc4ccc(Cl)cc4Cl)[C@H]3C2=O)cc1OC (racemic) [compound 8952]")
5.25
>>> observed_result("O=C(OCc1ccccc1)C(Cc1ccccc1)NC(=O)C1CC=CC2CCN(Cc3ccc(Cl)cc3)C(=O)C21 (mixture of isomers) [compound 11813]")
5.72
